Test system: Canavalia ensiformis
Test: Inhibition of jack bean beta-N-acetylglucosaminidase at 1 mM using p-nitrophenyl glycopyranoside preincubated for 5 mins followed by substrate addition measured after 20 mins by visible absorption spectroscopic method relative to control
The source made the active and inactive calls. The rule behind the calls is not given here.
measurementKind: inhibition

>>> experimentalresult("O[C@@H]1[C@H](O)CN[C@@H]1Cn1cc(-c2ccccc2)nn1")
"inactive"
>>> experimentalresult("O[C@@H]1[C@H](O)CN[C@H]1CNC(=S)Nc1ccccc1")
"inactive"
>>> experimentalresult("O[C@@H]1[C@@H](c2cn(Cc3ccccc3)nn2)NC[C@@H]1O")
"inactive"
>>> experimentalresult("O[C@@H]1[C@H](O)CN[C@H]1c1cn(Cc2ccccc2)nn1")
"inactive"
>>> experimentalresult("[N-]=[N+]=NC[C@@H]1NC[C@@H](O)[C@H]1O")
"inactive"

Turning now to a further compound:
Q) Record lookup: for Canavalia ensiformis, what inhibition belongs to `O[C@@H]1[C@H](O)CN[C@H]1Cn1cc(-c2ccccc2)nn1` ?
A) inactive

Taken from ChEMBL document CHEMBL4190262.
